- measurement-description: xn = mol fraction of the nth substance listed, in the solute-free solvent
- cond: 293.15 K; x2 = 0.2
value-kind: solubility (g/100 g solution)
Lab note: write the figure by itself, no unit.

Some entries whose results are on file:
- molecule: "O=C(CC(=O)c1ccccc1)c1ccccc1 + CC(C)O + O"
  value-kind: "solubility (g/100 g solution)"
  endpoint-result: 0.185
- molecule: "O=c1ccc2ccccc2o1 + CC(C)=O + O"
  value-kind: "solubility (g/100 g solution)"
  endpoint-result: 9.24
- molecule: "CCCCN1CCCCC1C(=O)Nc1c(C)cccc1C.Cl.O (centres undefined) + CO + O"
  value-kind: "solubility (g/100 g solution)"
  endpoint-result: 3.04

Data request: I would be grateful if you could share the reported solubility (g/100 g solution) for CCCCN1CCCCC1C(=O)Nc1c(C)cccc1C.Cl.O (centres undefined) + CCO + O .
Data returned: 3.1
